# Experimental System: Carbonic anhydrase 2 (Homo sapiens)
Experimental Readout: log10 Ki (log10 of the value in nM)
Kindly note that the scale is log10 and the underlying Ki is in nM.

What the record says about C[C@H](CCC(=O)Nc1c(S(N)(=O)=O)cc(S(N)(=O)=O)c(Cl)c1Cl)[C@H]1CC[C@H]2[C@@H]3C(=O)C[C@@H]4CC(=O)CC[C@]4(C)[C@H]3CC(=O)[C@]12C : log10 Ki is 0.95

// sample C[C@H](CCC(=O)Nc1c(S(N)(=O)=O)cc(S(N)(=O)=O)c(Cl)c1Cl)[C@H]1CC[C@H]2[C@@H]3CC[C@@H]4C[C@H](O)CC[C@]4(C)[C@H]3CC[C@]12C , its log10 Ki was 1.23

Note to self: log10 Ki recorded for C[C@H](CCC(=O)OCCOc1ccc2nc(S(N)(=O)=O)sc2c1)[C@H]1CC[C@H]2[C@@H]3CC[C@@H]4C[C@H](O)CC[C@]4(C)[C@H]3C[C@H](O)[C@]12C was 0.61

// field: log10 Ki; key: C[C@H](CCC(=O)Oc1ccc2nc(S(N)(=O)=O)sc2c1)[C@H]1CC[C@H]2[C@@H]3[C@H](O)C[C@@H]4C[C@H](O)CC[C@]4(C)[C@H]3C[C@H](O)[C@]12C ; value = 0.60

So, C[C@H](CCC(=O)Nc1cc(Cl)c(S(N)(=O)=O)cc1S(N)(=O)=O)[C@H]1CC[C@H]2[C@@H]3[C@H](O)C[C@@H]4C[C@H](O)CC[C@]4(C)[C@H]3C[C@H](O)[C@]12C ? Its log10 Ki was 1.75

---

So I've got a bunch of compounds here, and I need their Ki values.
# Experimental System: Carbonic anhydrase 4 (Bos taurus)
# Sequence (Q95323 whole entry): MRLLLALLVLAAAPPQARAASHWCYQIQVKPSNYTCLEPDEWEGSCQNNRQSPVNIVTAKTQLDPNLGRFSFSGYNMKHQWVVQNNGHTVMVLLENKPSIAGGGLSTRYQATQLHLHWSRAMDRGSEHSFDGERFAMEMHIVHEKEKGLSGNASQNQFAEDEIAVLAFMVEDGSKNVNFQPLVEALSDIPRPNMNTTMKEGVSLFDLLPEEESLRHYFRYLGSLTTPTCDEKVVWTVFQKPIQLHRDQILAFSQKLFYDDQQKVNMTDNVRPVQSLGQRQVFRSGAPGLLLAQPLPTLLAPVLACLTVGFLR
Only the number, expressed in nM, is required.

Reported Ki for C[C@H](CCC(=O)/N=c1\sc(S(N)(=O)=O)nn1C)[C@H]1CC[C@H]2[C@@H]3[C@H](O)C[C@@H]4C[C@H](O)CC[C@]4(C)[C@H]3CC[C@]12C was 100

C[C@H](CCC(=O)OCc1ccc(S(N)(=O)=O)cc1)[C@H]1CC[C@H]2[C@@H]3C(=O)C[C@@H]4CC(=O)CC[C@]4(C)[C@H]3CC(=O)[C@]12C has a reported Ki of 200

C[C@H](CCC(=O)NCCc1ccc(S(N)(=O)=O)cc1)[C@H]1CC[C@H]2[C@@H]3[C@H](O)C[C@@H]4C[C@H](O)CC[C@]4(C)[C@H]3CC[C@]12C yielded Ki of 235

---

Experimental Readout: pKi
pKi field: float, defined as -log10 of concentration (mol/L).

Tested on Carbonic anhydrase 2 (Homo sapiens, UniProt P00918), the item C[C@H](CCC(=O)Nc1nnc(S(N)(=O)=O)s1)[C@H]1CC[C@H]2[C@@H]3CC[C@@H]4C[C@H](O)CC[C@]4(C)[C@H]3CC[C@]12C showed pKi equal to 8.00

Result for C[C@H](CCC(=O)Nc1ccccc1S(N)(=O)=O)[C@H]1CC[C@H]2[C@@H]3CC[C@@H]4C[C@H](O)CC[C@]4(C)[C@H]3CC[C@]12C , tested on Carbonic anhydrase 2 (Homo sapiens, UniProt P00918), pKi: 6.57

C[C@H](CCC(=O)Nc1cc(Cl)c(S(N)(=O)=O)cc1S(N)(=O)=O)[C@H]1CC[C@H]2[C@@H]3[C@@H](O)C[C@@H]4C[C@H](O)CC[C@]4(C)[C@H]3CC[C@]12C on Carbonic anhydrase 2 (Homo sapiens, UniProt P00918) gives pKi = 8.05

Measured pKi (Carbonic anhydrase 2 (Homo sapiens, UniProt P00918)), entry C[C@H](CCC(=O)/N=c1\sc(S(N)(=O)=O)nn1C)[C@H]1CC[C@H]2[C@@H]3[C@@H](O)C[C@@H]4C[C@H](O)CC[C@]4(C)[C@H]3CC[C@]12C : 8.70

---

UniProt P00918: recorded Ki for assorted compounds
Report the figure in nM without appending any unit label.

// Ki lookup, compound = C[C@H](CCC(=O)Nc1ccc(S(N)(=O)=O)cc1Br)[C@H]1CC[C@H]2[C@@H]3[C@@H](O)C[C@@H]4C[C@H](O)CC[C@]4(C)[C@H]3CC[C@]12C , result: 10

Per the records, this compound ( C[C@H](CCC(=O)Nc1ccc(S(N)(=O)=O)cc1Cl)[C@H]1CC[C@H]2[C@@H]3[C@H](O)C[C@@H]4C[C@H](O)CC[C@]4(C)[C@H]3C[C@H](O)[C@]12C ) has Ki equal to 82

So for C[C@H](CCC(=O)Oc1ccc2nc(S(N)(=O)=O)sc2c1)[C@H]1CC[C@H]2[C@@H]3[C@H](O)C[C@@H]4C[C@H](O)CC[C@]4(C)[C@H]3CC[C@]12C , the logged Ki turned out to be 6.1
